Provenance of the data: patent US20060211739A1

Structures can show the parent of a compound that is named as a salt.
Each item that follows carries a reported melting point.

# COMPOUND, melting point
records = [
    ("Clc1cccc(-c2nnnn2Cc2cscn2)c1Cl (as salt: hydrochloride)", "153 to 154 °C"),
    ("Clc1ccc(-c2nnnn2Cc2ccccc2)s1 (as salt: hydrochloride)", "176 to 177 °C"),
    ("Cc1[nH]cnc1Cn1nnnc1-c1cccc(Cl)c1Cl (as salt: hydrochloride)", "151 to 153 °C"),
    ("Cc1nc(Cn2nnnc2-c2cccc(Cl)c2Cl)cs1 (as salt: hydrochloride)", "156 to 158 °C"),
]

Task item: Any idea what its melting point is? The compound is Cn1cncc1Cn1nnnc1-c1cccc(Cl)c1Cl (as salt: hydrochloride)
Reply: 166 to 168 °C
